Just for reference, PubChem BioAssay (NCI) is where these values come from.

Give GI50 for every item shown.
Tested on: K-562 leukemia
Assay: NCI tumour cell line growth inhibition, 48 h

Task: # GI50 lookup, item COC(=O)N1c2ccc3c(nc(Cc4ccccc4)n3[C@H]3CCC[C@H](C(=O)O)C3)c2CC[C@@H]1C
Result: 5.03 µM

Task: # GI50 lookup, item Cn1cc(-c2ccc(-c3cn(C)c4ncccc34)[nH]2)c2cccnc21
Result: 1.76 µM

Task: # GI50 lookup, item CC12CC[C@@H]3c4cc5c(cc4CC[C@H]3[C@@H]1CCC2O)oc1cc(F)ccc15 (stereo not given in full)
Result: 8.68 µM

Task: # GI50 lookup, item O=C(CC1(O)C(=O)N(Cc2ccccc2)c2ccc(Br)cc21)c1ccc(C(=O)NCC2CCC3(CC2)OOC2(CCCCC2)OO3)cc1 (stereo not given)
Result: 1.69 µM

Task: # GI50 lookup, item COC(=O)c1ccc([C@H]2c3[nH]c4ccccc4c3C[C@H](C(=O)OC)N2C(=O)CCl)cc1
Result: 1.97 µM
